Measured growth, listed per entry.
tested on: A549/ATCC NSCLC; test: NCI-60 one-dose screen, 48 h (100 = growth as untreated, 0 = no growth, -100 = all killed); conditions: 10 µM unless noted
This is part of a sample that, as a whole, favours compounds with a hit. Of some 83,000 tested, about 20% had one in any assay.
Express your answer in %, writing the number without its unit.

COMPOUND: O=C(NC(Cc1nnc2n(Cc3ccccc3)c(=O)c3c4c(sc3n12)CCCC4)c1ccc(Cl)cc1)c1ccccc1 (stereo not drawn)
UNIT: %
growth: 98.9
//
COMPOUND: Cc1ccc(-c2c(-c3ccccc3)c(=O)oc3ccc(C)cc23)cc1
UNIT: %
growth: 91
//
COMPOUND: CCOc1ccccc1-n1c(CN2CCN(C(=O)COc3ccc(CNCCCCCCN4C5CCCC4CC(OC(=O)Nc4cc(C)ccc4OC)C5)cc3)CC2)nc2ccccc2c1=O (stereo not drawn)
UNIT: %
growth: -88.2
//
COMPOUND: COc1cc(C(=O)/C=C/c2c(C(F)(F)F)nc3sccn23)cc(OC)c1OC
UNIT: %
growth: 11.3

Continue with the next compound.
**Query** # query: growth of entry `CCc1ccccc1-n1c(N)c(C#N)c(-c2ccc(N(C)C)cc2)c(C#N)c1=O`
**Result** 98.9

###

system: TK-10 renal; assay: NCI-60 one-dose screen, 48 h (100 = growth as untreated, 0 = no growth, -100 = all killed); settings: 10 µM unless noted
The panel holds about 83,000 compounds, 20% with a hit somewhere; the sample as a whole holds those more often.
Measured growth, listed per entry.
Express your answer in %, writing the number without its unit.

Example entries begin here.
COMPOUND: N#Cc1c(-c2ccccn2)[nH]c(=S)[nH]c1=O
MEASUREMENT_LABEL: growth
UNIT: %
VALUE_REPORTED: 94.3
--
COMPOUND: COc1ccc2oc3c(C)c4c(c(C)c3c2c1)C(=O)N(Cc1ccccc1)C4=O
MEASUREMENT_LABEL: growth
UNIT: %
VALUE_REPORTED: 120
--
COMPOUND: Cc1cc(NCc2cc(Nc3ccnc4cc(Cl)ccc34)ccc2F)nc(N2CCN(C)CC2)n1
MEASUREMENT_LABEL: growth
UNIT: %
VALUE_REPORTED: -16

**Query** Form: Entry = COC(=O)c1ccc(C2Nc3ccc(S(=O)(=O)Nc4ccc(C)c(C)c4)cc3C3OCCC23)cc1 (stereo unspecified) | System = TK-10 renal | growth = ____
**Result** 90.4

**Query** Form: Entry = `COc1ccc(Nc2nnc(SCc3ccccc3F)s2)cc1` | System = TK-10 renal | growth = ____
**Result** 123

**Query** Form: Entry = `NC1=NCc2nc3ccccc3c(=O)n2C1` | System = TK-10 renal | growth = ____
**Result** 106

**Query** Form: Entry = `O=C1/C(=C\c2cccnc2)SC(=S)N1CCc1ccc(O)cc1` | System = TK-10 renal | growth = ____
**Result** 38.5

**Query** Form: Entry = `Cc1nc2c(c(N3CCCc4ccccc43)n1)CCC2` | System = TK-10 renal | growth = ____
**Result** 57.8

**Query** Form: Entry = COc1cc(C2CC(=O)Nc3c2c(C)nn3-c2nc3ccccc3[nH]2)c(OC)c(OC)c1OC (stereo unspecified) | System = TK-10 renal | growth = ____
**Result** 12.5

**Query** Form: Entry = `COC(=O)c1ccc(CSc2nnc(-c3c(C)nc4ccc(C)cn34)o2)cc1` | System = TK-10 renal | growth = ____
**Result** 113

**Query** Form: Entry = `Cn1c(-c2c(N)n(Cc3cccnc3)c3nc(C#N)c(C#N)nc23)nc2ccccc21` | System = TK-10 renal | growth = ____
**Result** 55.5
